# System: MIA PaCa-2 cells
# Assay notes: Cellular viability assay (Cell Titer Fluor)
# Assay type: cell-based
# Condition: Homo sapiens, MIA PaCa-2, 72 h, 72 hours incubation
# Method: Cell viability were performed using the Cell Titer Fluor™ Assays (Promega G6080). MIA PaCa-2 cells are grown in DMEM media with 10% FBS, 1% Pen/Strep/Amphotericin B. Cells are trypsinized and counted using the Nexcelom cellometer. 5,000 cells/100 μl are plated per well in Greiner black/clear 96-well plates. […] For each test compound condition, triplicate technical replicates are used. […] Fluorescence is then read on the plate reader with excitation wavelength of 390 nm and emission wavelength of 505 nm. […]
pIC50: −log10 of the molar value.

- Smiles repr: "COc1ccccc1-c1cc(S(=O)(=O)NC(=O)c2ccccc2OC(F)F)n[nH]1"
  pIC50: "< 5.00"
- Smiles repr: "O=C(NCc1cc(-c2cccs2)[nH]n1)c1cccnc1N1CC(F)(F)C1"
  pIC50: "< 5.00"
- Smiles repr: "COc1ccccc1-c1nc(CNC(=O)c2cc(F)ccc2OC(F)F)n[nH]1"
  pIC50: "> 6.00"
- Smiles repr: "COc1ccc(F)cc1-c1nc(CNC(=O)c2ccccc2OC(F)F)n[nH]1"
  pIC50: "> 6.00"
- Smiles repr: "COc1ccsc1-c1cc(CNC(=O)c2ccccc2OC(F)(F)F)n[nH]1"
  pIC50: "> 6.00"
- Smiles repr: "O=C(NCc1cc(-c2cccs2)[nH]n1)c1ccccc1N1CCCCC1"
  pIC50: "> 6.00"
- Smiles repr: "CN(C)c1ccccc1-c1cc(CNC(=O)c2ccccc2OC(F)(F)F)n[nH]1"
  pIC50: "< 5.00"
- Smiles repr: "O=C(NCc1n[nH]c(-c2cccs2)n1)c1nccnc1N1CCC(F)(F)C1"
  pIC50: "< 5.00"
- Smiles repr: "O=C(NCc1cc(-c2cc(F)ccc2O)[nH]n1)c1cc(F)ccc1N1CCCCC1"
  pIC50: "> 6.00"
- Smiles repr: "N#Cc1ccc(N2CCCC(F)(F)C2)c(C(=O)NCc2cc(-c3cccs3)[nH]n2)c1"
  pIC50: "> 6.00"
- Smiles repr: "COc1ccc(F)cc1-c1cc(CNC(=O)c2cc(F)ccc2N2CCCCC2)n[nH]1"
  pIC50: "> 6.00"
- Smiles repr: "O=C(NCc1n[nH]c(-c2cc(O)ccc2O)n1)c1ccccc1OC(F)F"
  pIC50: "5.00 to 6.00"
- Smiles repr: "CCOc1ccc(Cl)cc1-c1cc(CNC(=O)c2ccccc2OC(F)F)n[nH]1"
  pIC50: "< 5.00"
- Smiles repr: "O=C(NCc1cc(-c2ccn[nH]2)[nH]n1)c1ccccc1OC(F)(F)F"
  pIC50: "< 5.00"
- Smiles repr: "O=C(NCc1cc(-c2cccs2)[nH]n1)c1ccccc1N1CCOCC1"
  pIC50: "> 6.00"
- Smiles repr: "O=C(NCc1cc(-c2ccccc2O)[nH]n1)c1ccccc1OC(F)(F)F"
  pIC50: "> 6.00"
- Smiles repr: "O=C(NCc1cc(-c2cccs2)[nH]n1)c1cc(F)ccc1N1CCCCC1"
  pIC50: "> 6.00"
- Smiles repr: "COc1ccc(F)cc1-c1nc(CNC(=O)c2cccnc2OC(F)F)n[nH]1"
  pIC50: "> 6.00"
- Smiles repr: "O=C(NCc1n[nH]c(-c2cccs2)n1)c1nccnc1N1CCCC(F)(F)C1"
  pIC50: "< 5.00"
- Smiles repr: "O=C(NCc1cc(-c2cc(F)cc(F)c2O)[nH]n1)c1ccccc1OC(F)(F)F"
  pIC50: "< 5.00"
- Smiles repr: "O=C(NCc1cc(-c2ccsc2Cl)[nH]n1)c1ccccc1OC(F)(F)F"
  pIC50: "< 5.00"
- Smiles repr: "COc1ccc(OC)c(-c2cc(CNC(=O)c3ccccc3OC(F)(F)F)n[nH]2)c1"
  pIC50: "< 5.00"
